biological target: T1, rhesus monkey transferrin receptor (rhTfR) fused to EGFP, on CHO cells (rhesus monkey); test: apparent Kd, flow cytometry, CHO cells
T1 construct: whole, on cells; also called rhesus monkey TfR
assay-endpoint: pKd
Give bare numbers, as −log10 of the molar value.

Sure, the documented pKd for C5^h13 (VHH) VHH: EVQLVESGGGVVQPGGSLRLSCAASGTDFSINFIRWYRQAPGKGLEFVAGFTATGNTNYADSVKGRFTISRDNTKNTLYLQMNSLRPEDTAVYYCYMLDKWGQGTQVTVSS is 6.14

Sure, the documented pKd for B8^V17 (VHH) VHH: EVQLVESGGGVVQPGGSLRLSCAASGEIFSINFMRWYRQAPGKQREFVAGFTRDGSTNYPDSAKGRFTISRDNAKNTVYLQIDSLKPEDTAVYYCYMLDTWGQGTQVTVSS is 8.60

Sure, the documented pKd for VHH A15 (C5^V15) (VHH) VHH: EVQLVESGGGVVQPGGSLKLSCVASGTDFSINFIRWYRQAPGKQREFVAGFTATGNTNYADSMKGRFTISRDNTKNAVYLQIDSLKPEDTAVYYCFMLDKWGQGTQVTVSS is 8.00

Please look at the following binder next.
Sure, the documented pKd for C5^h20 (VHH) VHH: EVQLVESGGGVVQPGGSLRLSCAASGTDFSINFIRWYRQAPGKGLEFVAGFTATGNTNYADSVKGRFTISRDNAKNAVYLQMNSLRPEDTAVYYCYMLDKWGQGTQVTVSS is 7.40
